Sourced from the METLIN SMRT retention time set (Domingo-Almenara et al. 2019)

Assay: gradient 5% acetonitrile 3 min, to 50% in 2 min, to 85% in 15 min, held 3 min, 100 µL/min
Details: column: Zorbax Extend-C18 2.1 x 50 mm; eluents: water / acetonitrile, 0.1% formic acid
RESULT TYPE: RP-LC retention time (s)

Some molecules with recorded RP-LC retention time:
MOLECULE	RP-LC retention time (s)
Cc1ccc(CNC(=O)Cn2cccc2-c2nc(-c3ccccc3)cs2)o1	1050
COc1ccc(OC)c(NC(=O)c2cc(C)n3nc(-c4ccco4)cc3n2)c1	1160
O=C(NC1(c2nc(-c3cccnc3)no2)CCCCC1)c1ccc(Br)cc1	1010
O=C(Nc1cnc(-c2cccnc2)nc1)C1CCCC1	654
O=c1cc(-c2ccccc2)nc2n1CCN2Cc1ccccn1	658

(1) O=C(O)c1[nH]nc2c1COc1ccccc1-2
(2) Cc1cc(C)n(-c2ccc(C(=O)NCc3ccc(Cl)cc3)cn2)n1
Which value of RP-LC retention time is smaller, the one for 1 or the one for 2 ? Respond using the label that marks the chosen record.
1

---

Test: gradient 5% acetonitrile 3 min, to 50% in 2 min, to 85% in 15 min, held 3 min, 100 µL/min
Settings: column: Zorbax Extend-C18 2.1 x 50 mm; eluents: water / acetonitrile, 0.1% formic acid
RESULT TYPE: RP-LC retention time (s)

MOLECULE	REPORTED RESULT
COc1ccc(Cl)cc1C(=O)Nc1ccc2c(c1)N(C)C(=O)C(C)(C)CO2	955
O=C(Nc1ccccc1Cl)c1csc(-c2ccc(N3CCCC3)nc2)n1	878
CCCNC(=O)C1CCN(S(C)(=O)=O)c2cc(Cl)ccc2O1 (stereo not given)	747
COc1cccc(NC(=O)C2CCN(S(=O)(=O)c3ccc4c(c3)CCCN4C(C)=O)CC2)c1	836
CCOc1ccccc1NC(=O)c1ccccc1[N+](=O)[O-]	823

---

Assay: gradient 5% acetonitrile 3 min, to 50% in 2 min, to 85% in 15 min, held 3 min, 100 µL/min
Conditions: column: Zorbax Extend-C18 2.1 x 50 mm; eluents: water / acetonitrile, 0.1% formic acid
RESULT TYPE: RP-LC retention time (s)

Solved entries:
COMPOUND	RP-LC retention time, s
O=S(=O)(c1c[nH]c2ncccc12)N1CCc2ccccc21	763
CCc1cc(-c2csc(S(=O)(=O)NCc3ccc(Br)cc3)c2)on1	1020
Cc1nn(CCCC(=O)NCCN2CCCC2)c(=O)c2c(-n3cccc3)n(-c3ccccc3)nc12	666
CCN1CCN(C(=O)C(C)n2c3ccccc3c3cnn(C)c(=O)c32)CC1 (configuration not stated)	585
CC(C)NC(=O)C1CCCN(c2nccn3nc(-c4ccccc4Cl)cc23)C1 (configuration not stated)	806

(1) Cc1nc2c(ccc3nc(NC(=O)CN4C(=O)c5ccccc5C4=O)sc32)s1
(2) CCOc1ccc(C2Cn3nnc(-c4nc(-c5ccc(C(F)(F)F)cc5)no4)c3CO2)cc1 (configuration not stated)
Pick one: 1 or 2 . Which has the bigger RP-LC retention time number? Write down the label attached to your selection.
2

(1) O=C(NCc1ccc2c(c1)OCO2)C1CCCN(C(=O)c2cc(-c3cccnc3)n[nH]2)C1 (configuration not stated)
(2) CCc1nnc2ccc(-c3noc(-c4cc(Cl)ccc4F)n3)cn12
Please compare: 1 and 2 . Report which one has the smaller RP-LC retention time value. Your answer should be the label attached to the chosen record.
1
